MAX(MFI) values for the binders below.
- Tested target: T1, cynomolgus ROR1 (cynoROR1) on CHO-K1 cells (cynomolgus, UniProt A0A2K5WTX7 30-937)
- T1 construct: whole, on cells; also called CHO-K1-cynoROR1; CHO-K1-cyROR1
- Procedure summary: FACS, CHO-K1-cynoROR1 cells
I only need the number, in MFI, no unit after it.

Would you please look over these solved cases?
# Binder, Reading
measured = [
    ("PR001365 (antibody, human IgG1, kappa, V domains shown, fully human IgG1, kappa) VH: QVQLVQSGGGVVQPGRSLRLSCAASGFTFSSYGMHWVRQAPGKGLEWVAVIWYDGSDKDYADSVKGRFTISRDTSKNTLYLQMNSLRAEDTAVYYCAREQARSFDLWGRGTLVTVSS VL: DIQMTQSPYSLSASVGDRVTITCRASQTINNWLAWYQQKPGKAPKLLIYKASSLESGVPSRFSGSGSGTEFTLTISSLQPDDFATYYCQQYKLYSPMYTFGQGTKVEIKR", 22100),
    ("PR001369 (antibody, human IgG1, kappa, V domains shown, fully human IgG1, kappa; also called anti-ROR1 1015M3-H10 hIgG1; PR001369(WT)) VH: QVQLVESGGGVVQPGRSLRLSCAASGFTFSNYGIHWVRQAPGKGLEWVAIMWYDGSNTDYADSVKGRFTISRDTSKNTLFLQMNSLRAEDTAVYYCAREQARSFDLWGRGTLVTVSS VL: DIVMTQSPSTLSASVGDRVTITCRASQTINNWLAWYQQKPGKAPKLLIYKASSLESGVPSRFSGSGSGTEFTLTISSLQPDDFATYYCQQYNSYSPMYTFGQGTKVEIKR", 22200),
]

Okay, now this binder:
Record request: MAX(MFI) value, item PR001370 (antibody, V domains shown, fully human IgG1, kappa) VH: EVQLLESGGGVVQPGRSLRLSCAASGFTFSSYGMHWVRQAPGKGLEWVAVKWYDGISQNFADSVKGRFTISRDNSKNTLYLQMNSLRAEDTAVYYCARDLARSFDLWGRGTLVTVSS VL: DIVMTQSPSTLSASVGDRVTITCRASQSINNWLAWYQQKPGKAPKLLIYKASSLESGVPSRFSGSGSGTEFTLTISSLQPDDFATYYCQQYNSYSPMYTFGQGTKVDIKR
26000
